# measurement target: CTSL (Homo sapiens)
# Construct: made in house
# Sequence (P07711 114-333): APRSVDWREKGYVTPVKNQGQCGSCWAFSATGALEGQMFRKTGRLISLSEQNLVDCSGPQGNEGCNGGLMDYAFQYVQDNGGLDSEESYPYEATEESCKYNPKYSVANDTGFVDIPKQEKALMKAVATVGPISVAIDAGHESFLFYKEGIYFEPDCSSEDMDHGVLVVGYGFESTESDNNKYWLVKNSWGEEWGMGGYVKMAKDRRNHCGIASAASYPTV
# experimental protocol: Kinetic evaluation of recombinant cathepsin inhibition, fluorogenic substrate Z-RR-AMC
# Assay type: biochemical
# conditions: irreversible inhibitor

| chemical structure | measurement target | Ki |
| --- | --- | --- |
| CC(C)C[C@H](N[C@@H](c1ccc(-c2ccc(S(C)(=O)=O)cc2)cc1)C(F)(F)F)C(=O)NCC(=O)COC(=O)[C@@H]1CCCN1C(=O)[C@H](CCC(N)=O)NC(=O)OCC1c2ccccc2-c2ccccc21 | CTSL (Homo sapiens) | > 50 µM |

###

# measurement target: Recombinant human cathepsin K (Homo sapiens, UniProt P43235)
# Construct: made in house
# Sequence (P43235 115-329): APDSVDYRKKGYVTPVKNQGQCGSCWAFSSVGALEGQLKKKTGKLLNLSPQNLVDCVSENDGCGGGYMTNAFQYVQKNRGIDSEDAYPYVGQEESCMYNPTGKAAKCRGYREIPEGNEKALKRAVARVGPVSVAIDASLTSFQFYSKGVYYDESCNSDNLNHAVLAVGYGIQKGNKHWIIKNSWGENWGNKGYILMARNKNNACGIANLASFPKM
# experimental protocol: Recombinant cathepsin inhibition, gel-based competition with GB123 probe
# Type: biochemical
# conditions: Figure 4b IC50 curves; recombinant CTSK 0.5 μM; read-out: IC50 for inhibiting CTSK activity

| compound | measurement target | units symbol | IC50 |
| --- | --- | --- | --- |
| CC(C)C[C@H](N[C@@H](c1ccc(-c2ccc(S(C)(=O)=O)cc2)cc1)C(F)(F)F)C(=O)NCC(=O)COC(=O)[C@@H]1CCCN1C(=O)[C@H](CC(C)C)NC(=O)OCC1c2ccccc2-c2ccccc21 [GD20] | Recombinant human cathepsin K (Homo sapiens, UniProt P43235) | µM | 0.46 |
| CC(C)C[C@H](N[C@@H](c1ccc(-c2ccc(S(C)(=O)=O)cc2)cc1)C(F)(F)F)C(=O)NCC(=O)COC(=O)[C@@H]1CCCN1C(=O)[C@H](CCC(N)=O)NC(=O)OCC1c2ccccc2-c2ccccc21 [GD38] | Recombinant human cathepsin K (Homo sapiens, UniProt P43235) | µM | 0.21 |

###

# measurement target: CTSS (Homo sapiens)
# Construct: made in house
# Sequence (P25774 115-331): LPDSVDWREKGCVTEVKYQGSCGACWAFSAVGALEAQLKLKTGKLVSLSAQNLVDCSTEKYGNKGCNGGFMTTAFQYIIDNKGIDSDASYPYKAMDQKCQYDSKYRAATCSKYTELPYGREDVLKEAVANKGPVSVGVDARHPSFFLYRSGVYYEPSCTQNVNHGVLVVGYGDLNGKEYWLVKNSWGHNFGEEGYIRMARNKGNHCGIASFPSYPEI
# experimental protocol: Kinetic evaluation of recombinant cathepsin inhibition, fluorogenic substrate Z-FR-AMC
# Type: biochemical
# conditions: irreversible inhibitor

| chemical structure | measurement target | units symbol | Ki |
| --- | --- | --- | --- |
| CC(C)C[C@H](N[C@@H](c1ccc(-c2ccc(S(C)(=O)=O)cc2)cc1)C(F)(F)F)C(=O)NCC(=O)COC(=O)[C@@H]1CCCN1C(=O)[C@H](CCC(N)=O)NC(=O)OCC1c2ccccc2-c2ccccc21 | CTSS (Homo sapiens) | µM | 62 |

###

# measurement target: Recombinant human cathepsin K (Homo sapiens, UniProt P43235)
# Construct: made in house
# experimental protocol: Recombinant cathepsin inhibition, gel-based competition with GB123 probe
# Type: biochemical
# conditions: Table S2; three independent competition gel-based experiments; read-out: CTSK (IC50)
pIC50: −log10 of the molar value.
Lab note: compare pIC50 against 6. Equal or greater, write Criterion met. Smaller, write Criterion not met.

| chemical structure | qualitative label |
| --- | --- |
| NCCCC[C@H](NC(=O)[C@@H]1CCCN1C(=O)CNC(=O)OCc1ccccc1)C(=O)CSc1c(F)c(F)cc(F)c1F | Criterion not met |
| CC(C)C[C@H](N[C@@H](c1ccc(-c2ccc(S(C)(=O)=O)cc2)cc1)C(F)(F)F)C(=O)NCC(=O)CSc1c(F)c(F)cc(F)c1F | Criterion met |

###

# measurement target: Recombinant human cathepsin K (Homo sapiens)
# Construct: made in house
# experimental protocol: Recombinant cathepsin inhibition, gel-based competition with GB123 probe
# Format: biochemical
# conditions: Table S2; value in nM; read-out: CTSK (IC50)
property name: IC50 (nM)

| compound | units symbol | test value |
| --- | --- | --- |
| CC(C)(F)C[C@H](N[C@@H](c1ccc(-c2ccc(S(C)(=O)=O)cc2)cc1)C(F)(F)F)C(=O)NC1(C#N)CC1 [ODN, odanacatib, reference compound] | nM | 350 |
